- Assay Explanation: Hemolytic activity in human blood assessed as hemolysis incubated for 6 hrs by microplate reader analysis
- Assay type: toxicity, tissue-based
Residues, ends and D or L forms follow the SMILES beside them.
# Lookup of reported MHC10 keyed by entry

compound="CCCCCC(=O)N[C@@H](CCCCN)C(=O)N[C@@H](CCCCN)C(=O)N[C@@H](C)C(=O)N[C@@H](CC(C)C)C(=O)N[C@@H](CCCCN)C(=O)N[C@@H](CC(C)C)C(=O)N[C@@H](C)C(=O)N[C@@H](CCCCN)C(=O)N[C@@H](CCCCN)C(=O)N1CCC[C@H]1C(=O)N[C@@H](CC(C)C)C(=O)N[C@@H](CCCCN)C(=O)N[C@@H](CC(C)C)C(=O)N[C@@H](CC(C)C)C(=O)N[C@@H](CCCCN)C(N)=O (HELM PEPTIDE1{[CCCCCC(=O)[*:2]].K.K.A.L.K.L.A.K.K.P.L.K.L.L.K.[am]}$$$$V2.0)" result="> 160 µM"
compound="CCCCCCCCCCCCCC(=O)N[C@@H](CCCCN)C(=O)N[C@@H](CCCCN)C(=O)N[C@@H](C)C(=O)N[C@@H](CC(C)C)C(=O)N[C@@H](CCCCN)C(=O)N[C@@H](CC(C)C)C(=O)N[C@@H](C)C(=O)N[C@@H](CCCCN)C(=O)N[C@@H](CCCCN)C(=O)N1CCC[C@H]1C(=O)N[C@@H](CC(C)C)C(=O)N[C@@H](CCCCN)C(=O)N[C@@H](CC(C)C)C(=O)N[C@@H](CC(C)C)C(=O)N[C@@H](CCCCN)C(N)=O (HELM PEPTIDE1{[CCCCCCCCCCCCCC(=O)[*:2]].K.K.A.L.K.L.A.K.K.P.L.K.L.L.K.[am]}$$$$V2.0)" result="53 µM"

Continue with the next compound.
Could you please provide reported MHC10 for CCCCCCCCCC(=O)N[C@@H](CCCCN)C(=O)N[C@@H](CCCCN)C(=O)N[C@@H](C)C(=O)N[C@@H](CC(C)C)C(=O)N[C@@H](CCCCN)C(=O)N[C@@H](CC(C)C)C(=O)N[C@@H](C)C(=O)N[C@@H](CCCCN)C(=O)N[C@@H](CCCCN)C(=O)N1CCC[C@H]1C(=O)N[C@@H](CC(C)C)C(=O)N[C@@H](CCCCN)C(=O)N[C@@H](CC(C)C)C(=O)N[C@@H](CC(C)C)C(=O)N[C@@H](CCCCN)C(N)=O (HELM PEPTIDE1{[CCCCCCCCCC(=O)[*:2]].K.K.A.L.K.L.A.K.K.P.L.K.L.L.K.[am]}$$$$V2.0) ? Thanks!
> 160 µM

----------
- Assay Explanation: AUClast in CD1 mouse at 3 mg/kg,iv administration measured upto 1 hr by LC-MS/MS analysis
- Type: ADME, organism-based
- Parameters: dose 3 mg/kg, time < 1 hrs, route iv
- Assay Setup: in vivo
Residues, ends and D or L forms follow the SMILES beside them.
Measure Name: AUClast (ng·h/mL)
Dear colleague, please return just the value in ng·h/mL, with no unit written.

Could you please provide reported AUClast for CCCCCCCC(=O)N[C@@H](CCCCN)C(=O)N[C@@H](CCCCN)C(=O)N[C@@H](C)C(=O)N[C@@H](CC(C)C)C(=O)N[C@@H](CCCCN)C(=O)N[C@@H](CC(C)C)C(=O)N[C@@H](C)C(=O)N[C@@H](CCCCN)C(=O)N[C@@H](CCCCN)C(=O)N1CCC[C@H]1C(=O)N[C@@H](CC(C)C)C(=O)N[C@@H](CCCCN)C(=O)N[C@@H](CC(C)C)C(=O)N[C@@H](CC(C)C)C(=O)N[C@@H](CCCCN)C(N)=O (HELM PEPTIDE1{[CCCCCCCC(=O)[*:2]].K.K.A.L.K.L.A.K.K.P.L.K.L.L.K.[am]}$$$$V2.0) ? Thanks!
263
